# TEST_SYSTEM: T1, human CD3ε/δ-Fc fusion protein (soluble recombinant CD3ε/δ complex) (human, UniProt P04234 22-105)
# T1 construct: also called huCD3ε/δ; huCD3; not shown: hinge, CH2, CH3 of human IgG with tag
# T1 sequence (chain, as listed by the source mutant, chain 1 of 2): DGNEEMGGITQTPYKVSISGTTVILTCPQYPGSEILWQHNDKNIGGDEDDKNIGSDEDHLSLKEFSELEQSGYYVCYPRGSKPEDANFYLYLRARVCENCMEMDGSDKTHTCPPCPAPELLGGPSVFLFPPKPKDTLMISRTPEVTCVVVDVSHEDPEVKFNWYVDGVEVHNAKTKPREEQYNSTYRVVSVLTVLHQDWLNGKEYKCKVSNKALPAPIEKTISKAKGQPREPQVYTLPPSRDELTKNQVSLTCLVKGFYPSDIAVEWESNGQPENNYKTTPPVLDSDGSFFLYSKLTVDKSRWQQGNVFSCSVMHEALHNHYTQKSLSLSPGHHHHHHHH
# T1 sequence (P04234 22-105, stated change not applied, chain 2 of 2): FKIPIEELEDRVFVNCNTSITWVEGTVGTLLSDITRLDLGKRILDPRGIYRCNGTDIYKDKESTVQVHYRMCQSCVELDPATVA
# PROTOCOL_SUMMARY: SPR Biacore, CD3εδ-Fc captured, Fab analyte
# Procedure: Binding affinities of anti-CD3 binding Fabs or CODV-Fabs were measured by surface plasmon resonance (SPR) using a Biacore3000 instrument (GE Healthcare). Assay buffer was HBS-EP (BR-1001-88, GE Healthcare). Capture of CD3ε/δ-Fc fusion proteins was achieved using the human antibody capture kit (GE Healthcare). […] Binding kinetics with the anti-CD3 Fabs or CODV-Fabs was measured at 30 μl/min for 240 sec. and 600 sec. for association and dissociation phase, respectively. […]
ASSAY_READOUT: kon (M⁻¹ s⁻¹)
Respond with the bare value in M⁻¹ s⁻¹.

Completed entries (count: 2):
| BINDER | kon / M⁻¹ s⁻¹ |
| --- | --- |
| 13H2-C2 Fab (Fab, V domains shown, also called 13H2-C3) VH: EEELVETGGSLVQPGKSLKLTCATSGFTFSNAWMHWVRQSPDKQLEWVAQIKAKSNNYATYYAESVKGRFTISRDDSKSSVYLQMNNLKEEDTAIYYCRYVHYGLAPMDAWGQGTSVTVSS VL: DVVMTQTPVSLSVSLGGQVSISCRSSQSLVHNNGNTYLSWYLQKAGQSPQLLIYKVSNRFSGISDRFSGSGSGTDFILKISRVEPDDLGVFYCGQGTQYPFTFGAGTKLELK | 170000 |
| 11F9-F8 Fab (Fab, V domains shown, also called 11F9-F8-huFab) VH: EVQLVETGGTLVQPGKSLKLTCATSGFTFSNAWMHWVRQSPEKQLEWVAQIKAKSNNYATYYAESVKGRFTISRDDSKTSVYLQLNSLREEDTAIYYCRGTQYGYNPFDYWGQGVMVTVSS VL: DVVLTQTPVSLSVSLGGQVSISCRSSQSLVHNNGNTYLSWSLQKPGQSPQVLIYKVSNRFSGISNRFSGSGSGTDFTLKISRVEPDDLGVYYCGQGAHYPFTFGSGTKLEIK | 77000 |

Consider now this further binder.
Data request: I would be grateful if you could share the reported kon for 4E7-C9 Fab (Fab, V domains shown, also called BDX-4E7-C9) VH: EVQVVETGGSLVQPGKSLKLTCATSGFTFSNAWMHWVRQSPEKQLEWVAQIKDKSNNYATYYAESLKGRFTISRDDPKRSIYLQMNSLREEDTAIYYCRYVHYGIGYAMDAWGQGTSVTVSS VL: DVVMTQTPVSLSVSLGGQVSISCRSSQSLEHNNGNTYLSWYLQKPGQSPQPLIYKVSNRFSGISDRFSGSGSGTDFTLKISRVEPDDLGVYYCGQGTQYPFTFGPGTKLELKR .
Data returned: 89000
